Recorded values, source ChEMBL document CHEMBL4014342.

Target Of Assay: Glycogen synthase kinase-3 beta (Homo sapiens, UniProt P49841)
Sequence (P49841 whole entry): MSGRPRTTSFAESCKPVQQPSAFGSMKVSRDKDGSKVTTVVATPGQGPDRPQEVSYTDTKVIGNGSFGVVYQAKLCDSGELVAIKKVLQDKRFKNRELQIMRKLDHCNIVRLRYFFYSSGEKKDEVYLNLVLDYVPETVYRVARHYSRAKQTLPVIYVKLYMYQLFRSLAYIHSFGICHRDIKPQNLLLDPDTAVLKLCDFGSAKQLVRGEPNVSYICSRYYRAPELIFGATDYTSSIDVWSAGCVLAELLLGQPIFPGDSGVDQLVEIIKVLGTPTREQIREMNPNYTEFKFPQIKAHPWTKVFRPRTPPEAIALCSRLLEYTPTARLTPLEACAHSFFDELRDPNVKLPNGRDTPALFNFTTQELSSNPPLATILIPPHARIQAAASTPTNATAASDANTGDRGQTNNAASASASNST
Protocol: Allosteric inhibition of human recombinant full length N-terminal GST-tagged GSK3beta expressed in fall armyworm Sf9 cells after 30 min in presence of ATP by kinase glo luminescent assay
Outcome Measure: IC50

# example entries with known answers
- Cn1c(=O)c(C(=O)NNC(=O)CCc2c[nH]c3ccccc23)c(O)c2ccccc21: > 20 µM
- CCCCCCCC(=O)NNC(=O)c1c(O)c2ccccc2n(CC=C(C)C)c1=O: 7.11 µM

Using the record for CC(=O)NNC(=O)c1c(O)c2ccccc2n(C)c1=O , report its IC50. > 20 µM

Consider the compound CCCCCCNC(=O)c1c(O)c2ccccc2n(C)c1=O and give its measured IC50. > 20 µM

// query IC50 value for entry CCn1c(=O)c(C(=O)NNC(=O)CCc2c[nH]c3ccccc23)c(O)c2ccccc21 > 20 µM
